Molecular target: T1, ExbD periplasmic domain (E. coli ExbD residues 59-141) (E. coli, UniProt P0ABV2 59-141)
T1 construct: single glycine residue left upstream of Arg-59 after proteolytic removal of the SUMO tag; ExbD, E. coli, periplasmic domain, residues 59-141 (begins at Arg-59); codon-optimised synthetic gene in pETHSUL; the methods and legends say 59-141; Two copies of this domain hold one D-box peptide in the crystals and by ITC; also called ExbD_(59-141); ExbD C-terminal periplasmic domain; source: E. coli …
T1 sequence: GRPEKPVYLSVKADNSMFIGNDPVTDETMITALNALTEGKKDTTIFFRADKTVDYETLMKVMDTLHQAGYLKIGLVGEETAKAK
Assay: fluorescence polarisation; fluorescence anisotropy; 100 nM AF488-labeled peptide, ExbD protein varied; 40 mM Tris pH 8.0, 150 mM NaCl; room temperature
Conditions: both partners purified
Ends that are not written are not given here.
PARAMETER MEASURED: Kd (µM)
Your answer should be a plain number; it is taken to be in µM.

Notebook: QPISVTMVTPADC(AF488 maleimide) (TonB, E. coli, residues 43-54 (D-box peptide); cysteine added at the C-terminus for labelling with the maleimide dye; not a TonB residue; also called fluorescently labeled D-box peptide; fluorophore-labeled D-box peptide; source: synthetic peptide (Biomatik Corporation), labelled with AF488-maleimide, purified on a C18 column) [AF488-labeled D-box peptide (QPISVTMVTPADC)] , Kd read as 45
